- Condition set: male Chinchilla rabbits, topical to right eye once daily for 3 days, 30 μL/eye/dose; dosing on day 3 at 24 h; vs control
Counter-ions that a name gives are not always drawn.
Measurement kind: ΔIOP % (%)
Answer format: numeric, % implied, no suffix.

// known answers, use as guide
[2H]C([2H])([2H])c1ccc(C(=O)OC([2H])([2H])c2ccc([C@]([2H])(C(=O)Nc3ccc4cnccc4c3)C([2H])([2H])N)cc2)c(C([2H])([2H])[2H])c1 [Example 5, dihydrochloride] | 1.19
[2H]c1nccc2cc(NC(=O)[C@]([2H])(CN)c3ccc(C([2H])([2H])OC(=O)c4ccc(C)cc4C)cc3)ccc12 [Example 13, dihydrochloride] | −8.48
[2H]c1nccc2cc(NC(=O)[C@]([2H])(CN)c3ccc(C([2H])([2H])OC(=O)c4ccc(C([2H])([2H])[2H])cc4C([2H])([2H])[2H])cc3)ccc12 [Example 23, dihydrochloride] | −0.87
Cc1ccc(C(=O)OCc2ccc([C@@H](CN)C(=O)Nc3ccc4cnccc4c3)cc2)c(C)c1.Cl.Cl [Reference compound 1, reference compound] | −4.35
[2H]c1nccc2cc(NC(=O)[C@H](CN)c3ccc(COC(=O)c4ccc(C)cc4C)cc3)ccc12 | −1.5
[2H]C([2H])(OC(=O)c1ccc(C)cc1C)c1ccc([C@H](C(=O)Nc2ccc3cnccc3c2)C([2H])([2H])N)cc1 [Example 8, dihydrochloride] | −7.52
[2H]c1nccc2cc(NC(=O)[C@@H](c3ccc(COC(=O)c4ccc(C)cc4C)cc3)C([2H])([2H])N)ccc12 [Example 4, dihydrochloride] | −15.63
[2H]c1nccc2cc(NC(=O)[C@@H](c3ccc(C([2H])([2H])OC(=O)c4ccc(C([2H])([2H])[2H])cc4C([2H])([2H])[2H])cc3)C([2H])([2H])N)ccc12 [Example 22, dihydrochloride] | 0.08

// query Return reported ΔIOP %; argument: [2H]c1nccc2cc(NC(=O)[C@@H](c3ccc(C([2H])([2H])OC(=O)c4ccc(C)cc4C)cc3)C([2H])([2H])N)ccc12 [Example 12, dihydrochloride]
// result −5.23

// query Return reported ΔIOP %; argument: [2H]c1nccc2cc(NC(=O)[C@H](CN)c3ccc(C([2H])([2H])OC(=O)c4ccc(C)cc4C)cc3)ccc12
// result −1.1

// query Return reported ΔIOP %; argument: [2H]C([2H])(OC(=O)c1ccc(C)cc1C)c1ccc([C@@H](CN)C(=O)Nc2ccc3cnccc3c2)cc1
// result −5.02

// query Return reported ΔIOP %; argument: [2H]C([2H])(OC(=O)c1ccc(C)cc1C)c1ccc([C@]([2H])(C(=O)Nc2ccc3cnccc3c2)C([2H])([2H])N)cc1 [Example 10, dihydrochloride]
// result −0.78

----------
- Condition set: male Chinchilla rabbits, topical to right eye once daily for 3 days, 30 μL/eye/dose; dosing on day 3 at 24 h; vs control
Counter-ions that a name gives are not always drawn.
Measurement kind: ΔIOP % (%)
Answer format: numeric, % implied, no suffix.

// known answers, use as guide
[2H]C([2H])(N)[C@@H](C(=O)Nc1ccc2cnccc2c1)c1ccc(COC(=O)c2ccc(C)cc2C)cc1 [Example 11, dihydrochloride] | −9.57
[2H]C([2H])(OC(=O)c1ccc(C)cc1C)c1ccc([C@@]([2H])(CN)C(=O)Nc2ccc3cnccc3c2)cc1 [Example 9, dihydrochloride] | −3.06
[2H]c1nccc2cc(NC(=O)[C@H](CN)c3ccc(COC(=O)c4ccc(C([2H])([2H])[2H])cc4C([2H])([2H])[2H])cc3)ccc12 [Example 19, dihydrochloride] | −3.3
[2H]c1nccc2cc(NC(=O)[C@@H](c3ccc(COC(=O)c4ccc(C([2H])([2H])[2H])cc4C([2H])([2H])[2H])cc3)C([2H])([2H])N)ccc12 [Example 21, dihydrochloride] | −5.06

Here is another compound to look at.
// query Return reported ΔIOP %; argument: [2H]C([2H])([2H])c1ccc(C(=O)OCc2ccc([C@H](C(=O)Nc3ccc4cnccc4c3)C([2H])([2H])N)cc2)c(C([2H])([2H])[2H])c1 [Example 16, dihydrochloride]
// result −1.44
